- Test system: SNB-78
- Assay Name: NCI tumour cell line growth inhibition, 48 h
Calls of active or inactive are those of the source. Rule as the data show it: active = GI50 up to about 1.1 µM and inactive = higher.
Property Label: GI50

Worked examples follow.
# Compound, Measured Result
data = [
    ("Cc1nc2c(n1C(C)(C)C)C(=O)c1ccccc1C2=O", "> 100 µM (inactive)"),
    ("CC(=O)Oc1cc2c(=O)oc3c(OC(C)=O)c(OC(C)=O)c(OC(C)=O)c4c(=O)oc(c1OC(C)=O)c2c34", "39.4 µM (inactive)"),
    ("COc1cc2c(oc(=O)c3c4occc4cc(OC)c23)c2cccc(O)c12", "> 100 µM (inactive)"),
    ("CC1=C(C(=O)NCc2ccccc2)C(/C=C/c2ccccc2)C(C(=O)NCc2ccccc2)=C(C)N1", "> 100 µM (inactive)"),
]

Please give the measured GI50 for this compound: `C/C([O-])=C(/c1nc(-c2ccc([N+](=O)[O-])o2)no1)[n+]1cc(C)ccc1C`
20.7 µM (inactive)

Item under review: COC1C=CC(O)C(CO)O1 (centres undefined) . Reported GI50?
> 100 µM (inactive)

# get_value(readout='GI50', item= `C/C(CN1C(=O)c2ccccc2C1=O)=N\NS(C)(=O)=O` )
> 100 µM (inactive)

Look up GI50: `Cc1nn2c(=O)n(-c3cccc(-n4nnc5c(-c6ccccc6)c(C)nn5c4=O)c3C)nnc2c1-c1ccccc1`
82.2 µM (inactive)

Tell me the measured GI50 of `C#CC[C@@]12CC(=O)C[C@@H]1CCC1(C2)OCCO1.C#CC[C@]12CC(=O)CC[C@H]1CC(=O)C2` , please.
> 100 µM (inactive)

* * *

In this section, each of the compounds is paired with its reported GI50.
- Test system: A549
- Assay Name: NCI tumour cell line growth inhibition, 48 h
The source made the active and inactive calls. Rule as the data show it: active = GI50 up to about 1.1 µM and inactive = higher.

# Compound, Study Target, GI50
measured = [
    ("CNC(=O)OCc1nc(SSC(C)(C)C)n(C)c1COC(=O)NC", "A549", "14.2 µM (inactive)"),
    ("COC(=O)C12Oc3ccc(-c4ccc5c(c4O)C(=O)C4=CCC(C)C(O)C4(C(=O)OC)O5)c(O)c3C(=O)C1=CCC(C)C2O (stereo unspecified)", "A549", "1.94 µM (inactive)"),
    ("N/C(=N\\N=C=C1C(=O)Nc2ccc(F)cc21)NO", "A549", "> 100 µM (inactive)"),
]

# query: GI50 | item `O=c1c2ccc(Cl)cc2oc2c(CNc3ccc(S(=O)(=O)Nc4ncccn4)cc3)cccc12` | system: A549
> 100 µM (inactive)

* * *

- Tested on: OVCAR-5
- Assay Name: NCI tumour cell line growth inhibition, 48 h
Calls of active or inactive are those of the source. Cut-off read from the data, not from the text of the source: active = GI50 up to about 1.1 µM and inactive = higher.
Property Label: GI50

Here's what some known entries look like.
# Molecule, Study Target, GI50
rows = [
    ("COc1cc(OCc2nc3cc(C(F)(F)F)ccc3nc2-c2ccccc2)cc(OC)c1OC", "OVCAR-5", "> 100 µM (inactive)"),
    ("O=[N+]([O-])c1ccc(-[n+]2ccc3ccccc3c2)c([N+](=O)[O-])c1", "OVCAR-5", "11.7 µM (inactive)"),
    ("Oc1ccccc1-c1nn2c(CCCCCCCCc3nnc4sc(-c5ccccc5O)nn34)nnc2s1", "OVCAR-5", "6.27 µM (inactive)"),
    ("Cc1cc(S(=O)(=O)O)ccc1/N=N/c1c(O)ccc2ccccc12", "OVCAR-5", "> 100 µM (inactive)"),
    ("CCOC(=O)N/N=C(\\Cc1ccc([N+](=O)[O-])cc1)OCC", "OVCAR-5", "> 100 µM (inactive)"),
]

// returns reported GI50 for input CC(C)(C)NCC(O)COc1cccc2[nH]c(C#N)cc12 (stereo not given) [CYANOPINDOLOL]
> 100 µM (inactive)

Tell me the measured GI50 of `Oc1c2cc(Br)cc1CCc1cc(Br)cc(c1O)CC2` , please.
23.2 µM (inactive)

Using the record for `COc1ccccc1NC(=O)NS(=O)(=O)c1ccccc1` , report its GI50.
> 100 µM (inactive)

GET /values?readout=GI50&item= `Cn1c(=O)c2c(nc3n2CCC(=O)N3CCCCl)n(C)c1=O`
> 100 µM (inactive)
